target: NUAK2 (h) (Homo sapiens, UniProt Q9H093); construct: This assay was done radiometrically using full-length, recombinant enzyme; assay: NUAK2 enzymatic assay (radiometric, Eurofins); conditions: radiometric, full-length recombinant enzyme
Sequence (Q9H093 whole entry): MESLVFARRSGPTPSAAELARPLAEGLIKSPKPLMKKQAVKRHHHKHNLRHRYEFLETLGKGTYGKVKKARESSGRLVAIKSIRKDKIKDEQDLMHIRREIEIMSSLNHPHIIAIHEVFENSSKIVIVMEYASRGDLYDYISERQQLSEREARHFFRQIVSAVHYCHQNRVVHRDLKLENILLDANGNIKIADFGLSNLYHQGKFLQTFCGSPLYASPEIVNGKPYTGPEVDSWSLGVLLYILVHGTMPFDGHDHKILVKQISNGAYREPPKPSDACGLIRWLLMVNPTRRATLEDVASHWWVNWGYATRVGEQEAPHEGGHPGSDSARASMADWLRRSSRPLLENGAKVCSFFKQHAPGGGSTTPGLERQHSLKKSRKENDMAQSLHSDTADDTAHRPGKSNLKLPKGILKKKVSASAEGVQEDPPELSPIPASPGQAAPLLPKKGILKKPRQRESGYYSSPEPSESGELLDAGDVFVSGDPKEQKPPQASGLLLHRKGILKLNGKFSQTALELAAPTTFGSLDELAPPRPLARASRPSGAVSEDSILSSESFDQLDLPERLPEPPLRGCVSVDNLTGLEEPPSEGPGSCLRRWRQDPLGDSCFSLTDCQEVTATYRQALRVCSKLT
pIC50: −log10 of the molar value. Where a name gives a salt, the structure may show the parent alone.
property: pIC50

Some compounds with known pIC50 results, for comparison:
CC(C)N1CCN(c2ccc(Nc3ncc(Cl)c(Nc4ccsc4C(N)=O)n3)c(OC(F)F)c2)CC1 [Compound I-12, hydrochloride] :: 8.00 to 10.00
CN1CCN(C2CCN(c3ccc(Nc4ncc(Cl)c(Nc5ccsc5C(N)=O)n4)c(OC(F)F)c3)CC2)CC1 [Compound I-41] :: 7.00 to 7.96
CN1CCN(c2ccc(Nc3ncc(Cl)c(Nc4ccsc4C(N)=O)n3)c(C(F)(F)F)c2)CC1 [Compound I-46] :: 7.00 to 7.96

Exam item: Can you look up the measured pIC50 of NC(=O)c1sccc1Nc1nc(Nc2ccc(N3CCC(N4CCN5CCC[C@@H]5C4)CC3)cc2OC(F)F)ncc1Cl [Compound I-71] for me?
Marked response: 7.00 to 7.96

---

biological target: NUAK2 (h) (Homo sapiens, UniProt Q9H093); construct: This assay was done radiometrically using full-length, recombinant enzyme; assay: NUAK2 enzymatic assay (radiometric, Eurofins); conditions: radiometric, full-length recombinant enzyme
Collected IC50 values appear next to each entry.

Some molecules with known IC50 results, for comparison:
CC(C)N1CCN(c2ccc(Nc3ncc(Cl)c(Nc4sccc4C(N)=O)n3)c(OC(F)F)c2)CC1 [Compound I-13] :: 0.1 to 10 nM
COc1cc(N2CCC(N3CCN(C)CC3)CC2)ccc1Nc1ncc(Cl)c(Nc2ccsc2C(N)=O)n1 [Compound C-3, reference compound] :: 11 to 100 nM
Cc1cnc(Nc2ccc(N3CCN(C)CC3)cc2OC(F)F)nc1Nc1ccsc1C(N)=O [Compound I-4] :: 11 to 100 nM

Pending molecule:
Exam item: Can you look up the measured IC50 of CN1CCN(c2ccc(Nc3ncc(Cl)c(Nc4ccsc4C(N)=O)n3)c(OC(F)(F)F)c2)CC1 [Compound I-10] for me?
Marked response: 0.1 to 10 nM

---

target: UniProtKB O14965
Sequence (O14965 whole entry): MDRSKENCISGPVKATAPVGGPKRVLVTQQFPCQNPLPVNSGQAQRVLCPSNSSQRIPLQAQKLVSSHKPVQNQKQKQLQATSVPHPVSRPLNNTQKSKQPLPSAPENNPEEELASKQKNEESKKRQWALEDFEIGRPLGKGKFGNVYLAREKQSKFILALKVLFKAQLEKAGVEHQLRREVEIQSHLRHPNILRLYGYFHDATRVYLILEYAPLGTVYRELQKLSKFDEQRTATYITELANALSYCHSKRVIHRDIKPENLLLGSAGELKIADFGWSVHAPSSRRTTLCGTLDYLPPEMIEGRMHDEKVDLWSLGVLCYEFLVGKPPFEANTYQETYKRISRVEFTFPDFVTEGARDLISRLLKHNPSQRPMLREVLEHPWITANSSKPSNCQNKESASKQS
Where a name gives a salt, the structure may show the parent alone.
property: IC50

CN1CCN(C2CCN(c3ccc(Nc4ncc(Cl)c(N[C@@H]5CCCC[C@H]5C(N)=O)n4)c(OC(F)F)c3)CC2)CC1 [Compound I-87] :: > 1000 nM

Exam item: Please provide the recorded IC50 for CC(C)N1CCN(c2ccc(Nc3ncc(Cl)c(Nc4ccsc4C(N)=O)n3)c(OC(F)F)c2)CC1 [Compound I-12, hydrochloride] , tested on UniProtKB O14965.
Marked response: 11 to 100 nM

Exam item: Please provide the recorded IC50 for C[C@H]1CN(C2CCN(c3ccc(Nc4ncc(Cl)c(Nc5ccsc5C(N)=O)n4)c(OC(F)F)c3)CC2)CCN1C [Compound I-65] , tested on UniProtKB O14965.
Marked response: 101 to 1000 nM

Exam item: Please provide the recorded IC50 for CN1C2CCC1CN(c1ccc(Nc3ncc(Cl)c(Nc4sccc4C(N)=O)n3)c(OC(F)F)c1)C2 [Compound I-32] , tested on UniProtKB O14965.
Marked response: 101 to 1000 nM

---

test system: MDA-MB-231 cells; test: Tumor cell growth inhibition assay (ATPlite); assay type: cell-based; conditions: Homo sapiens, 120 h, MDA-MB-231 breast tumor cell line, 5 days
pIC50: −log10 of the molar value.
property: pIC50

Some molecules with known pIC50 results, for comparison:
CN1CCN(c2ccc(Nc3ncc(Cl)c(N[C@@H]4CCCC[C@H]4C(N)=O)n3)c(OC(F)F)c2)CC1 [Compound I-82] :: 6.07
CN1CCCN(C2CCN(c3ccc(Nc4ncc(C(F)(F)F)c(Nc5ccsc5C(N)=O)n4)c(OC(F)F)c3)CC2)CC1 [Compound I-75] :: 6.92
CN1C2CCC1CN(c1ccc(Nc3ncc(Cl)c(Nc4ccsc4C(N)=O)n3)c(OC(F)F)c1)C2 [Compound I-30] :: 6.84
CC(C)N1CCN(C2CCN(c3ccc(Nc4ncc(C(F)(F)F)c(Nc5ccsc5C(N)=O)n4)c(OC(F)F)c3)CC2)CC1 [Compound I-78] :: 7.02

P. CN1CCN(C2CCN(c3ccc(Nc4ncc(C(F)(F)F)c(Nc5ccsc5C(N)=O)n4)c(OC(F)F)c3)CC2)CC1 [Compound I-52]
Q. CN1CCN(c2ccc(Nc3ncc(Cl)c(Nc4ccsc4C(N)=O)n3)c(OC(F)F)c2F)CC1 [Compound I-42]
Exam item: I'm curious whether P or Q has the smaller pIC50 number. Which is it? Respond using the label that marks the chosen record.
Marked response: Q
(Q: 6.19, P: 6.85)
